EXPERIMENTAL_DETAILS: sensitizers of A549 cells to miR-34 induction, primary screen, imaging, A549 dox-inducible miR-34, nuclei and caspase counts (AID 1347080)
MEASUREMENT_SETUP: A549 miR-34 inducible, Hoechst nuclei count, 48 h; measured here: relative caspase fold change +Dox/-Dox
Sorting guide: entries reporting fold change beneath 2 go in the 1 pile, the rest go in the 0 pile.

Example entries and their recorded answers appear below.
CC(Oc1ccc(O)cc1)(P(=O)(O)O)P(=O)(O)O = 1
O=C1O[C@@H](CO)[C@H](O)[C@@H](O)[C@@H]1O = 0
Oc1ccc2ccccc2c1 = 1
Cc1[nH]c(/C=C2\C(=O)Nc3ccccc32)c(C)c1CCC(=O)O = 1

Now for another entry.
### Prompt Confirm or reject: fold change of O=C(N[C@@H](CO)[C@H](O)c1ccc([N+](=O)[O-])cc1)C(Cl)Cl lies strictly below 2
### Response 1

* * *

EXPERIMENTAL_DETAILS: ovarian cancer cell viability with rucaparib, profiling panel, oncology-focused library, rucaparib conditional (AID 1508598)
MEASUREMENT_SETUP: patient-derived ovarian cancer cells, CellTiter-Glo viability, 144 h; at 0.0781 µM; OCI-C5x cells; without rucaparib; stronger effect = lower value
Quick reference for viability among some compounds
Give the quantity in %, number only.

Examples from the recorded data:
O=C(c1ccc(OCCN2CCCCC2)cc1)c1c(-c2ccc(O)cc2)sc2cc(O)ccc12 = 107
CS(=O)c1ccc(-c2nc(-c3ccc(F)cc3)c(-c3ccncc3)[nH]2)cc1 (stereo not drawn) = 164
C[C@@H](N)C1CCC(C(=O)Nc2ccncc2)CC1 (stereo partly drawn) = 107
O=c1cc(N2CCOCC2)oc2c(-c3ccccc3)cccc12 = 101
O=c1[nH]c(-c2ccc(C(F)(F)F)cc2)nc2c1CSCC2 = 104
CC(C)c1onc(-c2c(Cl)cccc2Cl)c1COc1ccc(/C=C/c2cccc(C(=O)O)c2)c(Cl)c1 = 105

### Prompt Assign viability to the following record: O=C(O)Cc1cccc(OCCCN(Cc2cccc(C(F)(F)F)c2Cl)CC(c2ccccc2)c2ccccc2)c1
### Response 123

### Prompt Assign viability to the following record: CC(NC(=O)c1ccccc1N=Cc1c(O)ccc2ccccc12)c1ccccc1 (stereo not drawn)
### Response 119

* * *

EXPERIMENTAL_DETAILS: Cy5 fluorescence interference with SSB-bound oligo, artefact control for HCV NS3 helicase inhibitor project, biochemical, NIH Clinical Collection, E. coli SSB (AID 743268)
Calls of active or inactive are those of the source. How the calls were made is not given here.
Bench note: report the call from class 1 for active, class 0 for inactive

### Prompt Outcome? O=c1c(O[C@@H]2O[C@H](CO)[C@@H](O)[C@H](O)[C@H]2O)c(-c2ccc(O)c(O)c2)oc2cc(O)cc(O)c12
### Response class 0

### Prompt Outcome? Nc1ncnc2c1ncn2[C@@H]1O[C@H](CO)C[C@@H]1O
### Response class 0

* * *

EXPERIMENTAL_DETAILS: suppressors of polyQ aggregation in yeast, 75Q-TubU reporter (AID 1593)
MEASUREMENT_SETUP: Yeast 75Q polyglutamine aggregation reporter
MEASURED_QUANTITY: score

Examples from the recorded data:
CC(=O)O[C@]1(C(C)=O)CCC2C3C[C@H](C)C4=CC(=O)CC[C@]4(C)C3CC[C@@]21C (some centres not stated) = 0.63
CC(=O)[C@H]1CCC2C3CCC4=CC(=O)CC[C@]4(C)C3CC[C@@]21C (some centres not stated) = 0.59
CC(Cc1ccc(O)c(O)c1)(NN)C(=O)O (configuration not stated) = 1.18
C#C[C@]1(O)CCC2C3CCC4=CC(=O)CC[C@@H]4C3CC[C@@]21CC (some centres not stated) = 1.25
C/C=C/CC(C)C(O)C1C(=O)NC(CC)C(=O)N(C)CC(=O)N(C)C(CC(C)C)C(=O)NC(C(C)C)C(=O)N(C)C(CC(C)C)C(=O)NC(C)C(=O)NC(C)C(=O)N(C)C(CC(C)C)C(=O)N(C)C(CC(C)C)C(=O)N(C)C(C(C)C)C(=O)N1C (configuration not stated) = 1.51

### Prompt Assign score to the following record: NC(COCc1ccccc1)C(=O)O (configuration not stated)
### Response 1.43

### Prompt Assign score to the following record: CC(COc1ccccc1)NC(C)[C@H](O)c1ccc(O)cc1 (some centres not stated)
### Response 1.07

### Prompt Assign score to the following record: C[C@]12C=CC(=O)C=C1CCC1C3C[C@@H](O)[C@](O)(C(=O)CO)[C@@]3(C)C[C@H](O)[C@@]12F (some centres not stated)
### Response 1.07

### Prompt Assign score to the following record: CC1(C)O[C@@H]2CC3C4C[C@H](F)C5=CC(=O)CC[C@]5(C)C4[C@@H](O)C[C@]3(C)[C@]2(C(=O)CO)O1 (some centres not stated)
### Response 1.49

### Prompt Assign score to the following record: CC(=O)OCC(=O)[C@@]1(O)[C@H](OC(C)=O)CC2C3CCC4=CC(=O)C=C[C@]4(C)[C@@]3(F)[C@@H](O)C[C@@]21C (some centres not stated)
### Response 1.15

### Prompt Assign score to the following record: CC(C)C[C@@H](NC(=O)OCC1c2ccccc2-c2ccccc21)C(=O)O
### Response -0.27

### Prompt Assign score to the following record: COC(=O)C1[C@H]2C[C@H]3c4[nH]c5ccccc5c4CCN3C[C@@H]2CC[C@@H]1O (some centres not stated)
### Response 1.22

### Prompt Assign score to the following record: CN(C)CC/C=C1/c2ccccc2COc2ccccc21
### Response 1.4

### Prompt Assign score to the following record: C[C@H](CCC(=O)O)[C@H]1CCC2C3C(=O)CC4CC(=O)CC[C@]4(C)C3CC(=O)[C@@]21C (some centres not stated)
### Response 1.59

### Prompt Assign score to the following record: C[C@H](CCC(=O)O)[C@H]1CCC2C3C(CC[C@@]21C)[C@@]1(C)CC[C@@H](O)C[C@H]1C[C@@H]3O (some centres not stated)
### Response -0.02

### Prompt Assign score to the following record: CC12CCC3C(=CCc4cc(O)ccc43)C1CCC2=O (configuration not stated)
### Response 0.86

### Prompt Assign score to the following record: CC1(C)O[C@@H]2CC3C4CCC5=CC(=O)C=C[C@]5(C)[C@@]4(F)[C@@H](O)C[C@]3(C)[C@]2(C(=O)CO)O1 (some centres not stated)
### Response 0.99

Source: PubChem BioAssay
